Entry source: the supplement of paper PMC10126150

tested on: ATP; assay: switch fluorescence ratio, 500 uM ATP over buffer (Cy3 cluster intensity, sum of 5 cycles each) (fold (ratio)); higher = stronger signal-on switching upon ATP binding; sequences stand for … in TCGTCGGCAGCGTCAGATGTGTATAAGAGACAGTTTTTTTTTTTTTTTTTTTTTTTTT…TC; settings: aptamer strand: ATP DNA aptamer (quencher-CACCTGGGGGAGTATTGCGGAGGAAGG + anchor), 100 nM annealed; ATP concentration: 500 uM;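 also: ATP exposure 15 min at 22 °C before imaging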
METRIC NAME: switch fluorescence ratio
One number for each entry.

| SEQUENCE DATA | switch fluorescence ratio |
| --- | --- |
| TTGAAGGCGG | 1.02 |

Provide each entry's switch fluorescence ratio from the list below.
1. TCCAGATGGA
2. GCTATAGAGG
3. AGGGGGCGGC

output:
[0.977, 0.985, 0.995]

###

tested on: ATP; assay: switch fluorescence ratio, 500 uM ATP over buffer (Cy3 cluster intensity, sum of 5 cycles each) (fold (ratio)); higher = stronger signal-on switching upon ATP binding; sequences stand for … in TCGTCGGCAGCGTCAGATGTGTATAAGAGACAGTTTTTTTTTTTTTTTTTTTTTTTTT…TC; settings: aptamer strand: ATP DNA aptamer (quencher-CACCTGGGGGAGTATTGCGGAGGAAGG + anchor), 100 nM annealed; ATP concentration: 500 uM;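 also: ATP exposure 15 min at 22 °C before imaging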
METRIC NAME: switch fluorescence ratio
One number for each entry.

| SEQUENCE DATA | switch fluorescence ratio |
| --- | --- |
| GCCCTGCAAT | 1.17 |
| GGGTGTAACT | 0.981 |
| GATTGGTTCC | 1.05 |
| CGTTTTTAGA | 0.967 |
| TCCTATACTA | 1.03 |

Provide each entry's switch fluorescence ratio from the list below.
1. CGGGTAGGGG
2. TTATACATGT
3. GGGGGAGGCC
4. TTCCGGGATC
5. CGGGGCGG
6. GGGCGAGGGG
7. TTGTATATTT
8. TTGGCATCCT

output:
0.996
0.973
1.02
1.91
0.952
1.01
0.982
1.02

Provide each entry's switch fluorescence ratio from the list below.
1. TTTCGGATTC
2. ACTAAAGGGG
3. ACGGGCTGTG
4. TTAATAGGG
5. ATGTTAGGCT

output:
1.08
1.04
1.01
1
0.998

###

tested on: ATP; assay: switch fluorescence ratio, 500 uM ATP over buffer (Cy3 cluster intensity, sum of 5 cycles each) (fold (ratio)); higher = stronger signal-on switching upon ATP binding; sequences stand for … in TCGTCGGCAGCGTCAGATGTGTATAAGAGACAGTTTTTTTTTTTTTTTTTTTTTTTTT…TC; settings: aptamer strand: ATP DNA aptamer (quencher-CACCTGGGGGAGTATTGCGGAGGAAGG + anchor), 100 nM annealed; ATP concentration: 500 uM;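 also: ATP exposure 15 min at 22 °C before imaging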
METRIC NAME: switch fluorescence ratio
One number for each entry.

Worked set:
| SEQUENCE DATA | SYSTEM NAME | switch fluorescence ratio |
| --- | --- | --- |
| CACGGTACGT | ATP | 1.06 |
| TTTGACTAGG | ATP | 1.01 |
| GACGTTTTTG | ATP | 0.996 |
| ATGATTTATT | ATP | 1 |
| ACGGGGGTAG | ATP | 0.989 |

Provide each entry's switch fluorescence ratio from the list below.
1. TAAAGGTGAA
2. TGCAATATTT
3. ATGTCAAGGG
4. GGCGGCGCGT
5. TAAAGGTCTT
6. GTGTTTGAAA
7. CGTGTTAACT
8. CTAGGATGTG

output:
1.08
1.31
0.994
1.04
1.01
0.998
0.992
0.997
